test system: T84; assay: Anticancer activity against human T84 cells assessed as inhibition of cell proliferation measured after 72 hrs by MTT assay; type: functional, cell-based; conditions: T84, 72 h
Reported pIC50 values are given for each entry in this list.
Scale for pIC50: -log10 of concentration given in mol/L; no unit attached.

These recorded examples may help you get a feel for the data.
{"COMPOUND": "COc1ccc2cc1Oc1ccc(cc1)Cc1nccc3c4c(c(OC)c(c13)Oc1c3c(cc(OC)c1OC)[C@H](C2)N(C)CC3)OCO4", "pIC50": 8.09}
{"COMPOUND": "CCc1c2c(nc3ccc(OC(=O)N4CCC(N5CCCCC5)CC4)cc13)-c1cc3c(c(=O)n1C2)COC(=O)[C@]3(O)CC [IRINOTECAN]", "pIC50": 8.16}

// next entry
Reported pIC50 ( CC(=O)O[C@@]12CO[C@@H]1C[C@H](O)[C@@]1(C)C(=O)[C@H](O)C3=C(C)[C@@H](OC(=O)[C@H](O)[C@@H](NC(=O)OC(C)(C)C)c4ccccc4)C[C@@](O)([C@@H](OC(=O)c4ccccc4)[C@H]21)C3(C)C [DOCETAXEL ANHYDROUS] ) = 8.57

Ref: ChEMBL document CHEMBL4680292
